Molecular target: mammalian GUS purified from Bovine taurus liver (Bos taurus)
Sequence (A3KMY8 1-652): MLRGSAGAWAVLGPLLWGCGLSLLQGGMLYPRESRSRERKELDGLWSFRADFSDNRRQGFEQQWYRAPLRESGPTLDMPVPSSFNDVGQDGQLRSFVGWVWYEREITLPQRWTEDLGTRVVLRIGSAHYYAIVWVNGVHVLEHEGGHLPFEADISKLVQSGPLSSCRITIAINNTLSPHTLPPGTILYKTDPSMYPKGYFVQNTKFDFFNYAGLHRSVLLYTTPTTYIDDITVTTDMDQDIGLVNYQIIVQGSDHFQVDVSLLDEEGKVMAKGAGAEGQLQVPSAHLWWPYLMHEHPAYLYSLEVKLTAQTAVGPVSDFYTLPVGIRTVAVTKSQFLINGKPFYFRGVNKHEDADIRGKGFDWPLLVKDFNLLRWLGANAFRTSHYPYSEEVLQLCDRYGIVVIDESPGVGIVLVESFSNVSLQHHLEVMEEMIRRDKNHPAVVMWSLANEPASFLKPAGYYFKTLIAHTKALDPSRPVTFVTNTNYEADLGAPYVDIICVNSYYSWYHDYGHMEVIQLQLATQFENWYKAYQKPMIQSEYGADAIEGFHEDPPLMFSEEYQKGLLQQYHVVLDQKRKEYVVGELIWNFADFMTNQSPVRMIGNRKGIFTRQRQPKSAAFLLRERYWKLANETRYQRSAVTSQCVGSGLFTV
Test: Bovine taurus GUS enzyme assay
Format: biochemical
Settings: average of at least three determinations; read-out: B. taurus GUS Enzyme Assay IC50 ± SD
experimental-readout: IC50
Could you write the number and then its unit?

Entry under test: O=C(CCNNC(=O)c1ccncc1)NCc1ccccc1 [Nialamide, nialamide] . Its IC50 was 74.8 µM

====

Target: E. coli GUS (Escherichia coli, UniProt P05804)
Sequence (P05804 whole entry): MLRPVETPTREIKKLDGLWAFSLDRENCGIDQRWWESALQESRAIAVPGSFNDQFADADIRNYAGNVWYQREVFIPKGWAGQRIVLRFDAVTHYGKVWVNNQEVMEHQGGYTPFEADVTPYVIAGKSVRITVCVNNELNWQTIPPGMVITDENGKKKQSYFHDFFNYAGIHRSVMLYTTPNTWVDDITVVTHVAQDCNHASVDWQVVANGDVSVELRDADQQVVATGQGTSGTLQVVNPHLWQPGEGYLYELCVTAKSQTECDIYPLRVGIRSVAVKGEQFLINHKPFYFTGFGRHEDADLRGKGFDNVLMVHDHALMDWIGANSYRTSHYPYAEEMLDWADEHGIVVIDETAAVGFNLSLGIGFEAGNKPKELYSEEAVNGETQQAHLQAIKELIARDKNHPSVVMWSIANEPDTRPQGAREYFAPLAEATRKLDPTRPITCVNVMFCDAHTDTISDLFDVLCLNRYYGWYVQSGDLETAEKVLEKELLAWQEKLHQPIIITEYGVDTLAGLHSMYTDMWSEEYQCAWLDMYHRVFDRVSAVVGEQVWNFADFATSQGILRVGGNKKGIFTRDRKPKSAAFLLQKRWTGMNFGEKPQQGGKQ
Assay: GUS enzyme assay, manual version (purified E. coli GUS, 4MUG)
Type: biochemical
Settings: running text; read-out: average IC50 in the E. coli GUS enzyme assay
Let's look at some molecules and their measured pIC50.
By convention, pIC50 is the negative base-10 log of a molar concentration.

molecule: O=C(CCNNC(=O)c1ccncc1)NCc1ccccc1 [Nialamide, nialamide]
pIC50: 7.15

Here is the next item to consider.
Entry under test: `NNCCc1ccccc1` . Its pIC50 was 5.66
